Entries annotated with measured composite z-score
test system: Noggin (protein binding on small-molecule microarray); assay: Noggin binders on small-molecule microarray, primary screen, biochemical, 635/667 nm fluorescence (AID 1095); settings: 635 nm fluorescence, higher = more signal;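 note: score merges 667 nm feature fluorescence with signal to noise over triplicate slides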
Write the number on its own, no unit after it.

{"compound": "CC(CCN1CCc2nc(-c3ccccc3)c(-c3ccccc3)cc2C1)=NO[C@@H](C)c1cn([C@H](CO)Cc2ccccc2)nn1", "composite z-score": 0.549}
{"compound": "CC(C)(C)N1CC=CC23O[C@@H]4C=CCCOC(=O)C4[C@H]2C(=O)N(CCCCCO)[C@@H]3C1=O (some centres undefined)", "composite z-score": 0.304}
{"compound": "COC(=O)[C@H](C)NC(=O)CCC1CC(OC(=O)NCCc2ccc(F)cc2)CC2(CCCC(COC(=O)NCC(c3ccccc3)c3ccccc3)O2)O1 (some centres undefined)", "composite z-score": 0.409}

Now let's try a different one.
Endpoint output: composite z-score of O=C1C[C@@H](O)[C@@H](O)[C@@H]2[C@@H]3C(=O)N(Cc4ccc5c(c4)OCO5)C(=O)[C@@H]3CC[C@@H]12 . Value?
0.495

* * *

Entries annotated with measured z-score
assay: adipocyte viability effects, profiling panel, cell-based, 3T3-L1 adipocytes, calcein-AM fluorescence, 48 h, basal (AID 1163); conditions: 3T3-L1 adipocytes viability, higher = more signal; note: test concentration not given here
Write the number on its own, no unit after it.

{"molecule": "O=C1C2C=CC(C(O)c3ccc([N+](=O)[O-])cc3)N(Nc3ccc([N+](=O)[O-])cc3)C2C(=O)N1c1ccccc1 (stereo not drawn)", "z-score": -1.1}
{"molecule": "COCCNC(=O)OCC1CCCC2(CC(OC(=O)NCCc3ccc(F)cc3)CC(CCC(=O)N[C@@H](C)C(=O)OC)O2)O1 (stereo partly drawn)", "z-score": -0.144}
{"molecule": "C=C(CCCC)C(=O)CC[C@@H](OC(C)=O)c1cccc(OCCO)c1", "z-score": -1.33}
{"molecule": "COc1ccc(O[C@@H]2[C@H](O)CO[C@H]2C=CC#Cc2ccccc2)cc1", "z-score": 0.392}
{"molecule": "Cc1ccc(S(=O)(=O)N[C@@H]2COC(=O)[C@H](C)COC(=O)CC=C[C@H]2C)cc1", "z-score": 0.518}

Endpoint output: z-score of CC(=O)OC[C@H]1O[C@H](CCON=C(C)CCN2CCc3nc(-c4ccccc4)c(-c4ccccc4)cc3C2)C=C[C@@H]1OC(C)=O . Value?
0.235

Endpoint output: z-score of COc1ccc([Si](C)(C)[C@@H]2[C@@H](CC(=O)N3CCC[C@H]3CO)O[C@]3(C(=O)N(Cc4cccc(N5CCC5=O)c4)c4ccccc43)[C@H]2C)cc1 . Value?
-1.34

Endpoint output: z-score of NCCCCCNC(=O)[C@@H]1C[C@@H]2C(=O)N3CCC[C@H]3C(=O)N2[C@@H]1c1cccc(OCCO)c1 . Value?
0.571

Endpoint output: z-score of CCOC(=O)[C@H](CC(C)C)NC(=O)CCC1CC(OC(=O)NCc2cccc3ccccc23)CC2(CCCC(COC(=O)NCCN3CCOCC3)O2)O1 (stereo partly drawn) . Value?
0.0174

Endpoint output: z-score of CO[C@H]1O[C@H](CO)[C@@H](OC(=O)Nc2ccc(C#N)cc2)[C@H](OC(=O)c2cc3ccccc3[nH]2)[C@H]1OC(=O)c1cc2ccccc2[nH]1 . Value?
0.221

Endpoint output: z-score of CCOC(=O)C1=CC[C@H]2C(=O)N(CC)C(=O)[C@@H]12 . Value?
0.0888

Endpoint output: z-score of O=C1[C@H]2[C@H]3[C@H](O)[C@H](O)CC(=NO[C@@H]4O[C@H](CO)[C@@H](O)[C@H](O)[C@H]4O)[C@@H]3CC[C@H]2C(=O)N1Cc1ccc2c(c1)OCO2 . Value?
1.13

Endpoint output: z-score of CN1C(=O)C2C=CC(C(O)c3ccc(I)cc3)N(NC(=O)OC(C)(C)C)C2C1=O (stereo not drawn) . Value?
-0.692

* * *

Entries annotated with measured z-score
test: basal MM1S mitochondrial membrane potential changes, profiling panel, cell-based, JC-1 fluorescence, 24 h, 100 nL compound (AID 1170); settings: higher = more signal; note: test concentration not given here

Recorded results for 5 compounds are shown here.
{"smiles representation": "CCOC(=O)CCN1C(=O)[C@H]2[C@H]3[C@H](O)[C@H](O)CC(=NOCc4ccccc4)[C@@H]3CC[C@H]2C1=O", "measured property": "z-score", "recorded value": -0.362}
{"smiles representation": "COCCCNC(=O)[C@@]1(CCS(=O)(=O)c2ccccc2)N=C(c2ccc(OCCCO)cc2)O[C@H]1c1ccccc1", "measured property": "z-score", "recorded value": 0.508}
{"smiles representation": "O=C1[C@H]2[C@H]3[C@H](O)[C@H](O)CC(=NOCc4ccccc4)[C@H]3CC[C@H]2C(=O)N1c1ccc(F)cc1F", "measured property": "z-score", "recorded value": -0.801}
{"smiles representation": "COCCCNC(=O)[C@@]1(Sc2ccc(C)cc2)CC(=O)N(Cc2ccccc2)[C@@H]1c1ccc(CO)cc1I", "measured property": "z-score", "recorded value": -1.47}
{"smiles representation": "O=C1C2=CC[C@H]3C(=O)N(Cc4ccc5c(c4)OCO5)C(=O)[C@H]3[C@H]2[C@H](O)[C@@H]2O[C@H]12", "measured property": "z-score", "recorded value": -0.398}

Endpoint output: z-score of CO[C@@H]1COC(=O)[C@@H]2CCCN2C(=O)[C@@H](C)COC(=O)[C@H](COCc2ccccc2)NC(=O)CC=C[C@H]1C . Value?
-0.683

Endpoint output: z-score of CC(C)OC(=O)C=C1C[C@@H](c2ccc(C#N)cc2)O[C@@H](c2ccc(C#N)cc2)O1 . Value?
-2.22

Endpoint output: z-score of CC(C)(C)OC(=O)CC[C@]1(C(=O)NCc2ccccc2)N=C(c2ccc(OCCCO)cc2)O[C@H]1c1ccccc1 . Value?
-0.531

* * *

Entries annotated with measured composite z-score
test system: PRMT1 (protein arginine N-methyltransferase 1); assay: PRMT1 binders on small-molecule microarrays, primary screen, biochemical, small-molecule microarray, 635 nm fluorescence (AID 1088); settings: small-molecule microarray binding, higher = more signal;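 note: binding of Prmt1 protein to compounds spotted on small-molecule microarray slides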
Write the number on its own, no unit after it.

Recorded results for 3 compounds are shown here.
{"compound": "COc1ccc(-c2ccc3c(n2)CCCN3CC(O)CN2CCCc3nc(C)c(C)cc32)cc1 (centres undefined)", "composite z-score": 1.43}
{"compound": "CCOC(=O)CCN1C(=O)[C@H]2[C@H]3[C@H](O)[C@H](O)CC(=O)[C@H]3CC[C@H]2C1=O", "composite z-score": 0.0774}
{"compound": "CC(C)[C@@H](OCc1ccccc1)[C@H](C)C=NO[C@H](C)c1cn([C@H](CO)Cc2ccccc2)nn1", "composite z-score": 1.55}

Now let's try a different one.
Endpoint output: composite z-score of CCOC(=O)[C@H](CC(C)C)NC(=O)CCC1CC(OC(=O)NCCc2ccc(F)cc2)CC2(CCCC(COC(=O)NCc3ccccc3)O2)O1 (some centres undefined) . Value?
1.57

* * *

assay: small-molecule microarray binders of probe aXIP, primary screen, biochemical, NeuroSMM set, 635/667 nm fluorescence (AID 1119); conditions: higher = more signal, called active from +8 up or from −8 down;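 note: probe is the protein aXip251-270 applied at 1 µg/mL to compound-printed slides; binding of probe to printed compounds measured as 667 nm fluorescence plus signal to noise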
Entries annotated with measured composite Z-score
Write the number on its own, no unit after it.

{"compound": "CO[C@@H]1COC(=O)[C@@H]2CCCN2C(=O)[C@@H](C)COC(=O)[C@H](COCc2ccccc2)NC(=O)CC=C[C@H]1C", "composite Z-score": -0.413}
{"compound": "COCCCNC(=O)[C@@]1(Sc2ccc(C)cc2)CC(=O)N(Cc2ccccc2)[C@@H]1c1ccc(CO)cc1I", "composite Z-score": 0.394}
{"compound": "CC(C)(C)N1CC=CC23O[C@@H]4C=CCCOC(=O)C4[C@H]2C(=O)N(CCCCCO)[C@@H]3C1=O (some centres undefined)", "composite Z-score": 0.08}

Now let's try a different one.
Endpoint output: composite Z-score of C=C(/C(=C/C[C@H](OC(C)=O)c1ccc(OCCO)cc1)c1cnc2ccccc2c1)C(C)C . Value?
-0.229

* * *

test system: Chordin-like protein 2 (CHRDL2); assay: CHRDL2 small-molecule binders, primary screen, biochemical, small-molecule microarray, 635 nm fluorescence (AID 1126); conditions: small-molecule microarray binding, fluorescence 635 nm; higher = more signal;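 note: printed compound slides probed with Chrdl2 protein at 4 µg/mL for 1 h at 4 C; score merges 667 nm emission intensity with signal to noise over three replicate slides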
measured property: composite z-score

{"compound": "NCCCCCNC(=O)[C@@H]1C[C@@H]2C(=O)N3CCC[C@H]3C(=O)N2[C@@H]1c1cccc(OCCO)c1", "composite z-score": 1.14}
{"compound": "CC(CCN1CCc2nc(-c3ccccc3)c(-c3ccccc3)cc2C1)=NOC[C@@H](C)[C@H](OCc1ccccc1)C(C)C", "composite z-score": -1.11}
{"compound": "CC(C)OC(=O)C=C1C[C@@H](c2ccc(C#N)cc2)O[C@@H](c2ccc(C#N)cc2)O1", "composite z-score": -0.595}
{"compound": "COc1ccc(COC(=O)NN=C2C[C@@H](O)[C@@H](O)[C@@H]3[C@@H]4C(=O)N(Cc5ccc6c(c5)OCO6)C(=O)[C@@H]4CC[C@@H]23)cc1", "composite z-score": -0.54}
{"compound": "COCC1=C2[C@@H](CCc3ccccc3)OB(O)C[C@@H]2n2c(=O)n(-c3ccccc3)c(=O)n2C1", "composite z-score": 0.198}
{"compound": "CCCCCN1CC=CC23O[C@@H]4C=CCOC(=O)[C@@H]4[C@H]2C(=O)N(C(CO)C(C)C)[C@@H]3C1=O (stereo partly drawn)", "composite z-score": -0.326}
{"compound": "CC=CC1=C(CO)[C@H](O)[C@H]2O[C@H]2[C@H]1O", "composite z-score": 1.09}

Endpoint output: composite z-score of CC1CC/C=C\[C@H]2OC34C=CCN(Cn5nnc6ccccc65)C(=O)[C@H]3N(CCO)C(=O)[C@@H]4C2C(=O)O1 (stereo partly drawn) . Value?
-1.62
